Source: patent US8003596B2

- systemTested: T1, human P-selectin/IgG-Fc (R&D Systems) (human), P16109
- T1 chain: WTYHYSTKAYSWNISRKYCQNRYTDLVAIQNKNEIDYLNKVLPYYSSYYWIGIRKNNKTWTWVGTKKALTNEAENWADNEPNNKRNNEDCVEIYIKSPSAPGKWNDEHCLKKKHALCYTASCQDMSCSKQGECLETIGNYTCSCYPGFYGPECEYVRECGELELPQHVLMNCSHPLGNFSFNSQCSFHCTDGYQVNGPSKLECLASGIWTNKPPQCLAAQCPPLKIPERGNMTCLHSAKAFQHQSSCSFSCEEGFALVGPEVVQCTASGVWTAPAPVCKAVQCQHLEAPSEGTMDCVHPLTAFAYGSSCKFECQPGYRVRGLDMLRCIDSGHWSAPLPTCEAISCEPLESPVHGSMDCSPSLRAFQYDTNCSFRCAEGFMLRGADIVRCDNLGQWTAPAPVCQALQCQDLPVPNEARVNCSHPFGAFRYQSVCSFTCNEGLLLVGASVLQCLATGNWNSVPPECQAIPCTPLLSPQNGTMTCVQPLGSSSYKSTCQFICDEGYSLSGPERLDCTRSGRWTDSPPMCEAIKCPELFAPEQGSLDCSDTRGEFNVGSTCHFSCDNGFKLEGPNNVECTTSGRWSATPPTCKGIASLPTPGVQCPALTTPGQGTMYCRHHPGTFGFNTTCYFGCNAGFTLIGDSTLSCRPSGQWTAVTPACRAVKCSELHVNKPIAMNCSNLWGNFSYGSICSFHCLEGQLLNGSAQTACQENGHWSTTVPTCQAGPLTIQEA
- testMethodNotes: competition ELISA against TM11-PO on captured human P-selectin/IgG-Fc
pIC50: −log10 of the molar value.
recordedMetric: pIC50

DVEWVDVSY (modifications not checked) [human P-selectin binding peptide H2N-…-COOH (Pstar)] | 5.15
